The origin of these recorded values is paper PMC4183655.

Target: alpha 2C (h) (Homo sapiens, UniProt P18825)
Sequence (P18825 1-462): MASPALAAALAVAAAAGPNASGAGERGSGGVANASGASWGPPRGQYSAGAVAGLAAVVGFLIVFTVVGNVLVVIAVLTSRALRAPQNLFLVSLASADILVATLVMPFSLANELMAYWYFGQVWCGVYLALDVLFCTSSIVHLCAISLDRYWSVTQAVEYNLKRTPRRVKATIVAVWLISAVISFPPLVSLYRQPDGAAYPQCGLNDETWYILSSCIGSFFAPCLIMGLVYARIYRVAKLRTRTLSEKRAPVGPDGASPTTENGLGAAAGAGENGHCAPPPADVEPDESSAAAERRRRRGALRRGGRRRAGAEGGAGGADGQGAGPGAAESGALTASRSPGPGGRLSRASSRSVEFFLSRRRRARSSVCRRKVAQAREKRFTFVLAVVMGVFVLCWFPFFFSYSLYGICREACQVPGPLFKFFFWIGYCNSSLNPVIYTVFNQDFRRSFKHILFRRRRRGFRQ
Measure: IC50 (nM)
Quick note: give the figure in nM, leave out the unit.

Query string: // fetch alpha 2C (h) (Homo sapiens, UniProt P18825) IC50 for COc1ccc(CCc2nc3cc(-c4c(C)noc4C)ccc3n2C[C@H](C)N2CCOCC2)cc1Cl [Compound 59]
Result string: 110

###

Biological target: CECR2 (Homo sapiens)
Construct: using recombinant BRDs as surrogates of full-length protein
Sequence (Q9BXF3 434-538 limits assumed): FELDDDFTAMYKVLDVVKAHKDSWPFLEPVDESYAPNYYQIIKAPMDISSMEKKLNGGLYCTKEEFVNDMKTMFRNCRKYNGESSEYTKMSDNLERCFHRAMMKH
Assay: Peptide displacement AlphaScreen
Measure: IC50 (µM)
Quick note: give the figure in µM, leave out the unit.

Query string: Return reported IC50; argument: Cc1noc(C)c1-c1ccc2c(c1)nc(CCc1ccccc1)n2CCN1CCCCC1
Result string: 12

###

Molecular target: CBP (Homo sapiens)
Assay: Isothermal titration calorimetry (ITC)
Mark criterion not met for ITC ∆H, CBP values under -10 kcal/mol, and criterion met for everything at or above.

Worked examples, 5 compounds total:
>>> df
                                   compound     measured_target     assigned_class
0  Cc1noc(C)c1-c1ccc2c(c1)nc(CCc1nc3ccccc3s1)n2CCN1CCOCC1 [Compound 35]  CBP (Homo sapiens)      criterion met
1  Cc1ccc(CCc2nc3cc(-c4c(C)noc4C)ccc3n2CCN2CCOCC2)cc1 [Compound 25]  CBP (Homo sapiens)      criterion met
2  Cc1noc(C)c1-c1ccc2c(c1)nc(CCc1ccc(F)cc1)n2CCN1CCOCC1 [Compound 31]  CBP (Homo sapiens)      criterion met
3  Cc1noc(C)c1-c1ccc2c(c1)nc(CCn1ccc3ccccc31)n2C[C@H](C)N1CCOCC1 [Compound 61]  CBP (Homo sapiens)  criterion not met
4  COc1ccc(CCc2nc3cc(-c4c(C)noc4C)ccc3n2C[C@@H](C)N2CCOCC2)cc1F [Compound 62]  CBP (Homo sapiens)  criterion not met

Query string: Please tell me: is the compound COc1ccc(CCc2nc3cc(-c4c(C)noc4C)ccc3n2CCN2CCOCC2)cc1Cl [Compound 32] at or over -10 kcal/mol in terms of ITC ∆H, CBP?
Result string: criterion not met

###

Target: CBP (Homo sapiens, UniProt Q92793)
Sequence (Q92793 1085-1192 limits assumed): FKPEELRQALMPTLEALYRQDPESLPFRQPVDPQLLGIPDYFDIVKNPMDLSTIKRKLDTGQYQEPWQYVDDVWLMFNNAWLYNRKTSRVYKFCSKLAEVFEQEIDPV
Assay: Isothermal titration calorimetry (ITC)
Measured ITC N (molar binding ratio of the ligand-protein interaction), CBP accompanies every entry in the list below.
# print the numeric value only

Examples with their reported ITC N (molar binding ratio of the ligand-protein interaction), CBP follow.
In [3]: df
Out[3]:
                               smiles_entry  observed
0  Cc1noc(C)c1-c1ccc2c(c1)nc(CCn1ccc3ccccc31)n2C[C@H](C)N1CCOCC1      1.01
1  Cc1noc(C)c1-c1ccc(NC[C@H](C)N2CCOCC2)c([N+](=O)[O-])c1     0.983
2  Cc1ccc(CCc2nc3cc(-c4c(C)noc4C)ccc3n2CCN2CCOCC2)cc1      1.02

Below: the item to evaluate.
Query string: Return reported ITC N (molar binding ratio of the ligand-protein interaction), CBP; argument: Cc1noc(C)c1-c1ccc2c(c1)nc(CCc1ccccc1)n2CCN1CCCCC1
Result string: 1.00
